FYI, the data here is from ChEMBL document CHEMBL1201862.

system: DU-145; assay: NCI tumour cell line growth inhibition, 48 h
Calls of active or inactive are those of the source. Rule as the data show it: active = GI50 up to about 1.1 µM and inactive = higher.
Log the outcome using a class from yes (1) for active, no (0) for inactive

>  <molecule>
CCC(c1ccc(OC)cc1)C1NC(=S)NC1=O (stereo unspecified)

>  <cat>
no (0)

$$$$

Query: Field: outcome | Entry: Nc1c(C(=O)c2ccc(Cl)c(Cl)c2)[nH]c(NCc2ccccc2)c1C(=S)Nc1ccccc1
Response: no (0)

Query: Field: outcome | Entry: CC1=Nn2c(nc3sc4c(c3c2=O)CCCC4)SC1
Response: no (0)

Query: Field: outcome | Entry: O=C1c2ccccc2-c2nc3ccncc3n21
Response: no (0)

Query: Field: outcome | Entry: COc1cccc(-c2cc(O)c3cc(N4CCCC4)ccc3n2)c1
Response: yes (1)

Query: Field: outcome | Entry: CC(=O)NCCC1CN(C(=O)/C=C\I)c2ccccc21 (stereo unspecified)
Response: no (0)
